Assay: Oral bioavailability in male Sprague-Dawley rat at 10 mg/kg administered as single dose by LC-MS/MS analysis
Type: ADME, organism-based
Settings: in vivo
MEASURED_ATTRIBUTE: bioavailability (%)

Guide cases for bioavailability, answers given:
1) C=CC(=O)N1CCN(c2c(C#N)c(=O)n(-c3c(C)ccnc3C(C)C)c3nc(-c4c(N)c(Cl)cc(Cl)c4F)c(F)cc23)CC1
18.7
2) C=CC(=O)N1CCN(c2c(C#N)c(=O)n(-c3c(C)ccnc3C(C)C)c3nc(-c4c(O)cccc4F)c(F)cc23)CC1CC#N (stereo not drawn)
9.18
3) C=CC(=O)N1CCN(c2c(C#N)c(=O)n(-c3c(C)ccnc3C(C)C)c3nc(-c4c(N)c(F)c(F)c(F)c4F)c(Cl)cc23)CC1 (atropisomer M) [GLECIRASIB]
11.6
4) C=CC(=O)N1CCN(c2c(C#N)c(=O)n(-c3c(C)ccnc3C(C)C)c3nc(-c4c(N)c(Cl)cc(Cl)c4F)c(Cl)cc23)CC1 (atropisomer M)
17.9
5) C=CC(=O)N1CCN(c2c(C#N)c(=O)n(-c3c(C)ccnc3C(C)C)c3nc(-c4c(O)cccc4F)c(F)cc23)CC1
11
6) C=CC(=O)N1[C@H](C)CN(c2c(C#N)c(=O)n(-c3c(C)ccnc3C(C)C)c3nc(-c4c(O)cccc4F)c(F)cc23)C[C@@H]1C
9.51

a = C=CC(=O)N1CCN(c2c(C#N)c(=O)n(-c3c(C)ccnc3C(C)C)c3nc(-c4ccccc4F)c(F)cc23)CC1
b = C=CC(=O)N1CCN(c2c(C#N)c(=O)n(-c3c(C)ccnc3C(C)C)c3nc(-c4c(F)c(F)c(F)c(N)c4Cl)c(Cl)cc23)CC1 (atropisomer M)
// query For the pair a and b , which member has the lower bioavailability number? Answer by stating the label of the chosen item.
// result b
(b: 7.28%, a: 13.3%)
